- protocol: amyloid nucleation score (Sup35N fusion, yeast selection) (log enrichment); library NNK2; higher = more nucleation; inactive = no reads after selection;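 also: zero at mode of non-aggregating sequences after 7 days selection at 30°C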
parameter: amyloid nucleation score
Respond with the number and no other words.

Enquiry: May I ask what amyloid nucleation score has been recorded for VQRQIDNSKLWYNYTICIPA ?
Return: 0.679

Enquiry: May I ask what amyloid nucleation score has been recorded for DTMRYLAGYLMACWPVEWSG ?
Return: 0.685

Enquiry: May I ask what amyloid nucleation score has been recorded for YVATVWPLQSKRLSHRLMNG ?
Return: 0.695

###

- protocol: amyloid nucleation score (Sup35N fusion, yeast selection) (log enrichment); library NNK2; higher = more nucleation; inactive = no reads after selection
parameter: amyloid nucleation score

> print(dat)
       ordered.residues   reading
1  TRDIELWLGWNRKEVCVLLE  inactive
2  RTLGHSLYPIDIYMGSDHLG  inactive
3  RRIINWPNSGIGIPRSKSMF  inactive

###

- protocol: amyloid nucleation score (Sup35N fusion, yeast selection) (log enrichment); library NNK3; higher = more nucleation; inactive = no reads after selection
parameter: amyloid nucleation score

// known answers, use as guide
> print(dat)
              substance                 parameter   reading
1  WSMCKLKDFFTGRGVYRFIS  amyloid nucleation score  inactive
2  KDNTYVIFFYYLFVFVRTFL  amyloid nucleation score  inactive
3   STETYWYSHLIINLVGSWF  amyloid nucleation score  inactive
4             QNMCAARPS  amyloid nucleation score  inactive
5   YSNSELSGECRLLHKITSD  amyloid nucleation score  inactive
6                TWELHV  amyloid nucleation score    -0.428
7               LWQGNMM  amyloid nucleation score     -1.07

Attention now shifts to the item below.
Enquiry: May I ask what amyloid nucleation score has been recorded for TAWGMLGGPE ?
Return: inactive

###

- protocol: amyloid nucleation score (Sup35N fusion, yeast selection) (log enrichment); library NNK3; higher = more nucleation; inactive = no reads after selection
parameter: amyloid nucleation score

> print(dat)
              substance   reading
1  INLTYRVTVRVQISAPGMCA    -0.206
2  SKRARVKWSTQPHFVRYLLE  inactive
3  SSLIFLFDGKHRVLIYNLSN     0.482
4  IYVVLQTWHNYAMLTITGLV     0.228

Enquiry: May I ask what amyloid nucleation score has been recorded for NYVGSSPGVGSRYTCLKSNV ?
Return: inactive

Enquiry: May I ask what amyloid nucleation score has been recorded for FLFRNLVAWFMHSDLFFYGV ?
Return: inactive

Enquiry: May I ask what amyloid nucleation score has been recorded for GWFMCVSTAWGVYNAYIPMQ ?
Return: inactive

Enquiry: May I ask what amyloid nucleation score has been recorded for TLLSFAHYHHLWSHLVYRSV ?
Return: inactive

Enquiry: May I ask what amyloid nucleation score has been recorded for PYGKFRLNPLD ?
Return: 0.652

Enquiry: May I ask what amyloid nucleation score has been recorded for ISSPNEVWSVIVEWPRIYC ?
Return: inactive

Enquiry: May I ask what amyloid nucleation score has been recorded for NCRVCCRYVNSSPDV ?
Return: -0.974

Enquiry: May I ask what amyloid nucleation score has been recorded for TGYLQLYRTADDRGLEYCIM ?
Return: inactive

Enquiry: May I ask what amyloid nucleation score has been recorded for NTVSHMY ?
Return: inactive

Enquiry: May I ask what amyloid nucleation score has been recorded for KNEAPRTGQTRPRSTGMYRI ?
Return: inactive

Enquiry: May I ask what amyloid nucleation score has been recorded for PATLQSPISSK ?
Return: inactive

Enquiry: May I ask what amyloid nucleation score has been recorded for RFWLLRRVVWEME ?
Return: inactive

All values here come from the supplement of paper PMC12042874.
